tested on: SW1990 pancreatic adenocarcinoma cells [homozygous G12D]; test: Cancer cell line proliferation (CellTiter-Glo), SW1990; assay type: cell-based; settings: Homo sapiens, 72 hr treatment, read-out: SW1990 CTG (EC50)
pEC50: −log10 of the molar value.

[
  {
    "Compound": "C#Cc1c(F)ccc2cc(O)cc(-c3nc(OC)c4c(N5CC6CNC(C6)C5)nc(OCC5(CN6CCN(Cc7ccc(-n8c(C(=O)NCC)nnc8-c8cc(C(C)C)c(O)cc8O)cc7)CC6)CC5)nc4c3F)c12 (centres unmarked) [Compound 189]",
    "Target desc": "SW1990 pancreatic adenocarcinoma cells [homozygous G12D]",
    "pEC50": "> 7.00"
  },
  {
    "Compound": "C#Cc1c(F)ccc2cc(O)cc(-c3ncc4c(N5CC6CCC(C5)N6)nc(OC5CN(Cc6ccc(-n7c(C(=O)NC(C)C(F)(F)F)nnc7-c7cc(C(C)C)c(O)cc7O)cc6)C5)nc4c3F)c12 (centres unmarked) [Compound 176]",
    "Target desc": "SW1990 pancreatic adenocarcinoma cells [homozygous G12D]",
    "pEC50": "< 6.00"
  },
  {
    "Compound": "CC(C)c1cc(C(=O)N2Cc3ccc(CN4CCN([C@H]5C[C@@H](COc6nc(N7CC8CCC(C7)N8)c7cnc(-c8cc(O)cc9ccccc89)c(F)c7n6)N(C)C5)CC4)cc3C2)c(O)cc1O [Compound 25]",
    "Target desc": "SW1990 pancreatic adenocarcinoma cells [homozygous G12D]",
    "pEC50": "> 7.00"
  },
  {
    "Compound": "C#Cc1c(F)ccc2cc(O)cc(-c3ncc4c(N5CC6CCC(C5)N6)nc(OCC5(CN6CCC(C7CCN(Cc8ccc(-n9c(C(=O)NC(C)C(F)(F)F)nnc9-c9cc(C(C)C)c(O)cc9O)cc8)CC7)CC6)CC5)nc4c3F)c12 (centres unmarked) [Compound 162]",
    "Target desc": "SW1990 pancreatic adenocarcinoma cells [homozygous G12D]",
    "pEC50": "> 7.00"
  },
  {
    "Compound": "C#Cc1c(F)ccc2cc(O)cc(-c3nc(OC)c4c(N5CC6CCC(C5)N6)nc(OCC5(CN6CCOC(CNCc7ccc8c(c7)CN(C(=O)c7cc(C(C)C)c(O)cc7O)C8)C6)CC5)nc4c3F)c12 (centres unmarked) [Compound 192]",
    "Target desc": "SW1990 pancreatic adenocarcinoma cells [homozygous G12D]",
    "pEC50": "6.00 to 7.00"
  }
]
